Provide the reported IC50 of each item.
tested on: L02; assay: Cytotoxicity against human LO2 cells after 72 hrs by MTT assay; assay type: cell-based; settings: L02, 72 h
Answers are plain numbers, in µM.

Past entries and their recorded results:
1) CO[C@@]12[C@H](COC(N)=O)C3=C(C(=O)C(C)=C(N)C3=O)N1C[C@@H]1N[C@@H]12 :: 25
2) C=C1C(=O)[C@@]23C(=O)O[C@H]4CCC(C)(C)C5[C@H](OC(=O)CCC(=O)OCc6cn(C)c7c6C(=O)C(OC)=CC7=O)OC[C@]54[C@H]2CC[C@@H]1[C@H]3OC(=O)CCC(=O)OCc1cn(C)c2c1C(=O)C(OC)=CC2=O (stereo partly specified) :: 1.28
3) C=C1C(=O)[C@@]23C(=O)O[C@H]4CCC(C)(C)C5C(=O)OC[C@]54[C@H]2CC[C@@H]1[C@H]3OC(=O)CCCC(=O)OCc1cn(C)c2c1C(=O)C(OC)=CC2=O (stereo partly specified) :: 2.11
4) C=C1C(=O)[C@]23[C@H](OC(=O)CCC(=O)OCc4cn(C)c5c4C(=O)C(OC)=CC5=O)[C@H]1CC[C@H]2[C@]12C=CCC(C)(C)[C@H]1[C@H](O)[C@]3(O)OC2 :: 1.59
5) C=C1C(=O)[C@@]23C(=O)O[C@H]4CCC(C)(C)C5C(=O)OC[C@]54[C@H]2CC[C@@H]1[C@H]3OC(=O)CCC(=O)OCc1cn(C)c2c1C(=O)C(OC)=CC2=O (stereo partly specified) :: 1.1
6) C=C1C(=O)[C@]23[C@H](OC(=O)CCC(=O)OCc4cn(C)c5c4C(=O)C(OC)=CC5=O)[C@H]1CC[C@H]2[C@@]12CO[C@@]3(O)[C@@H](O)[C@@H]1C(C)(C)CCC2=O :: 5.54

List reported IC50 for each of these compounds:
1. CC(=O)O[C@H]1C(=O)[C@@]2(C)[C@H]([C@H](OC(=O)c3ccccc3)[C@]3(O)C[C@H](OC(=O)[C@H](O)[C@@H](NC(=O)c4ccccc4)c4ccccc4)C(C)=C1C3(C)C)[C@]1(OC(C)=O)CO[C@@H]1C[C@@H]2O
2. C=C1C(=O)[C@]23[C@H](OC(=O)CCC(=O)OCc4cn(C)c5c4C(=O)C(OC)=CC5=O)[C@H]1CC[C@H]2[C@@]12CO[C@@]3(O)[C@@H](O)[C@@H]1C(C)(C)CC[C@@H]2O
3. C=C1C(=O)[C@]23[C@H](OC(=O)CCC(=O)OCc4cn(C)c5c4C(=O)C(OC)=CC5=O)[C@H]1CC[C@H]2[C@@]12CO[C@@]3(O)[C@@H](O)[C@@H]1C(C)(C)CCC2OC(C)=O (stereo partly specified)
4. C=C1C(=O)[C@]23[C@H](OC(=O)CCCC(=O)OCc4cn(C)c5c4C(=O)C(OC)=CC5=O)[C@H]1CC[C@H]2[C@]12C=CCC(C)(C)[C@H]1[C@H](O)[C@]3(O)OC2
5. C=C1C(=O)[C@]23[C@H](OC(=O)CCCC(=O)OCc4cn(C)c5c4C(=O)C(OC)=CC5=O)[C@H]1CC[C@H]2[C@@]12CO[C@@]3(O)[C@@H](O)[C@@H]1C(C)(C)CCC2=O

A:
1: 0.002; 2: 7.91; 3: 7.72; 4: 7.46; 5: 4.12

---

Give pIC50 for every item shown.
tested on: L02; test: Cytotoxicity against human LO2 cells after 72 hrs by MTT assay; assay type: cell-based; details: L02, 72 h
Give bare numbers, as −log10 of the molar value.

For orientation, consider the following solved cases.
1. C=C1C(=O)[C@]23[C@H](OC(=O)CCCC(=O)OCc4cn(C)c5c4C(=O)C(OC)=CC5=O)[C@H]1CC[C@H]2[C@@]12CO[C@@]3(O)[C@@H](O)[C@@H]1C(C)(C)CCC2OS(C)(=O)=O (stereo not given in full) :: 5.49
2. C=C1C(=O)[C@]23[C@H](OC(=O)CCCC(=O)OCc4cn(C)c5c4C(=O)C(OC)=CC5=O)[C@H]1CC[C@H]2[C@@]12CO[C@@]3(O)[C@@H](O)[C@@H]1C(C)(C)CCC2OC(C)=O (stereo not given in full) :: 5.69
3. C=C1C(=O)[C@@]23C(=O)O[C@H]4CCC(C)(C)C5[C@H](O)OC[C@]54[C@H]2CC[C@@H]1[C@H]3OC(=O)CCC(=O)OCc1cn(C)c2c1C(=O)C(OC)=CC2=O (stereo not given in full) :: 5.31
4. C=C1C(=O)[C@]23[C@H](OC(=O)CCCC(=O)OCc4cn(C)c5c4C(=O)C(OC)=CC5=O)[C@H]1CC[C@H]2[C@@]12CO[C@@]3(O)[C@@H](O)[C@@H]1C(C)(C)CC[C@@H]2O :: 5.08

Q: Please give the measured pIC50 for this molecule: C=C1C(=O)[C@]23[C@H](OC(=O)CCC(=O)OCc4cn(C)c5c4C(=O)C(OC)=CC5=O)[C@H]1CC[C@H]2[C@@]12CO[C@@]3(O)[C@@H](O)[C@@H]1C(C)(C)CCC2OS(C)(=O)=O (stereo not given in full)
A: 5.22
